target: HLA-B*18:01; assay: IEDB peptide-MHC binding, purified MHC/direct/fluorescence; filed as Kd, often an IC50 or EC50 that approximates it; bounds were set here for any values at or beyond the usual limits of such assays; settings: source organism: Mycobacterium tuberculosis
pKd: −log10 of the molar value.
EXPERIMENTAL ENDPOINT: pKd

Task item: Give its pKd value. Item: "SPREECGVF"
Reply: ≤ 4.70

###

target: HLA-B*08:01; experiment: IEDB peptide-MHC binding, purified MHC/competitive/radioactivity; filed as Kd, often an IC50 or EC50 that approximates it; bounds were set here for any values at or beyond the usual limits of such assays; conditions: source organism: Dengue virus 3 Singapore/8120/1995
EXPERIMENTAL ENDPOINT: pKd
Friendly reminder that pKd comes from taking -log10 of the concentration in mol/L.

Task item: Hello, I am looking for reported pKd with HLA-B*08:01 for "WIMKIGIGVL" . Could you help?
Reply: 6.54
